Value source: patent US20230203081A1

For each record, write down the corresponding MIC.
- Tested on: S. pneumoniae MMX 3028 cErmB
- experimental protocol: MIC (broth microdilution or agar dilution, CLSI)
- Format: cell-based
- run conditions: Streptococcus pneumoniae, MMX3028CERMB; S. pneumoniae HAV#033; MMX 3028, cErmB; read-out: MIC
Give bare numbers, in µg/mL.

Previously resolved entries follow.
>>> measurement("CC(=O)NC[C@H]1CN(c2ccc(N3CCOCC3)c(F)c2)C(=O)O1")
0.5
>>> measurement("C[C@H]1c2cccc(O)c2C(=O)C2=C(O)[C@]3(O)C(=O)C(C(N)=O)=C(O)[C@@H](N(C)C)[C@@H]3[C@@H](O)[C@@H]21")
1
>>> measurement("Cc1onc(-c2ccccc2)c1C(=O)N[C@@H]1C(=O)N2[C@@H]1SC(C)(C)[C@@H]2C(=O)O")
2

Consider the additional molecule presented here.
Request: Report MIC for C[C@H]1COc2c(N3CCN(C)CC3)c(F)cc3c(=O)c(C(=O)O)cn1c23 please.
Response: 0.5

---

- Test system: broad panel of different clinical isolates
- experimental protocol: microbe, parasite or virus in culture
- Format: cell-based
- run conditions: Staphylococcus epidermidis, S. epidermidis HAV#277; Line R
quantity kind: MIC (µg/mL)
Answers are plain numbers, in µg/mL.

>>> measurement("CSC1O[C@H]([C@H](NC(=O)[C@H]2NC[C@@H]3C[C@H](CC(C)C)CCO[C@H]32)[C@H](C)Cl)C(O)[C@@H](O)[C@H]1O (stereo partly drawn) [FSA-513018b]")
16

Request: Report MIC for C[C@H]1c2cccc(O)c2C(=O)C2=C(O)[C@]3(O)C(=O)C(C(N)=O)=C(O)[C@@H](N(C)C)[C@@H]3[C@@H](O)[C@@H]21 please.
Response: 8

---

For each record, write down the corresponding MIC.
- System: S. pneumoniae MMX 3031 cMefA
- experimental protocol: MIC (broth microdilution or agar dilution, CLSI)
- Assay type: cell-based
- run conditions: Streptococcus pneumoniae, MMX3031CMEFA, S. pneumoniae MMX 3031 cMefA; read-out: MIC

>>> measurement("CS[C@H]1O[C@H]([C@H](NC(=O)[C@H]2NC[C@@H]3C[C@H](CC(C)C)CCO[C@H]32)[C@H](C)Sc2ccc(CN(C)C)cc2)[C@H](O)[C@H](O)[C@H]1O")
"0.06 µg/mL"
>>> measurement("CSC1O[C@H]([C@H](NC(=O)[C@@H]2[C@@H]3OCC[C@H](CC(C)C)C[C@H]3CN2C)[C@H](C)Cl)CC(O)[C@H]1O (some centres unmarked) [FSA-513003a]")
"≤ 0.06 µg/mL"
>>> measurement("CSC1O[C@H]([C@H](NC(=O)[C@H]2NC[C@@H]3C[C@@H](CC(C)C)CCO[C@H]32)[C@H](C)Cl)CC(O)[C@H]1O (some centres unmarked) [FSA-513018a]")
"≤ 0.06 µg/mL"
>>> measurement("CCC[C@@H]1CCO[C@@H]2[C@H](CN[C@@H]2C(=O)N[C@H]([C@H](C)Cl)[C@H]2OC(SC)[C@H](O)[C@H](O)C2O)C1 (some centres unmarked)")
"0.06 µg/mL"

Request: Report MIC for CSC1O[C@H]([C@H](NC(=O)[C@H]2NC[C@@H]3C[C@H](CC(C)C)CCO[C@H]32)[C@H](C)Cl)C(O)[C@@H](O)[C@H]1O (some centres unmarked) [FSA-513018b] please.
Response: ≤ 0.06 µg/mL
